Known CACO permeability PEBA of a selection of molecules
System: Caco-2 monolayers
Test: in vitro
Settings: basolateral to apical
*1 amine or outer side, *2 acyl side, *3 side chain or, on linkers, in order; H or OH if unused. Where a SMILES comes first, the peptide text is derived from it. [ ]: non-standard residue; d: D form. ξ: configuration not given here. X3 = C#CCOc1ccc([C@@H](OC)[C@H](N[*:1])C(=O)[*:2])cc1; X5 = C=CCn1cc(C[C@@H](C(=O)[*:2])N(C)[*:1])c2ccccc21; X1 = C#CCn1cc(C[C@H](N[*:1])C(=O)[*:2])c2ccccc21; X7 = C=CCn1cc(C[C@H](N[*:1])C(=O)[*:2])c2ccccc21; NMeLeu(5-OH,4R) = CN[C@@H](C[C@@H](C)CO)C(=O)O; Phe(βR-OMe) = CO[C@H](c1ccccc1)[C@H](N)C(=O)O; ξNMeTrp(1-Me) = CNC(Cc1cn(C)c2ccccc12)C(=O)O; Trp(1-Me) = Cn1cc(C[C@H](N)C(=O)O)c2ccccc21; X8 = CC(CO)C[C@@H](C(=O)[*:2])N(C)[*:1]; NMeL = CN[C@@H](CC(C)C)C(=O)O; Pra = C#CC[C@H](N)C(=O)O; ξV = CC(C)C(N)C(=O)O
observable: CACO permeability PEBA (cm/s)

[[record]]
molecule = "CCCCCn1cc(C[C@@H]2NC(=O)[C@H](CC(C)C)N(C)C(=O)[C@H](C(C)C)NC(=O)[C@H]([C@H](OC)c3ccccc3)NC(=O)[C@H](C)NC(=O)[C@H](C[C@@H](C)CO)N(C)C(=O)[C@H](Cc3cn(C)c4ccccc34)NC2=O)nn1"
tgt = "Caco-2 monolayers"
observable = "CACO permeability PEBA"
output_unit = "cm/s"
experimental_result = 0.000011

[[record]]
molecule = "C=CCn1cc(C[C@H]2C(=O)N(C)[C@@H](C[C@@H](C)CO)C(=O)N[C@@H](C)C(=O)N[C@@H]([C@H](OC)c3ccccc3)C(=O)N[C@@H](C(C)C)C(=O)N(C)[C@@H](CC(C)C)C(=O)N[C@@H](C(C)C)C(=O)N2C)c2ccccc21 [SI-60] (cyclo(A[Phe(βR-OMe)]V[NMeL]V[X5][NMeLeu(5-OH,4R)]))"
tgt = "Caco-2 monolayers"
observable = "CACO permeability PEBA"
output_unit = "cm/s"
experimental_result = 0.000088

[[record]]
molecule = "C#CCn1cc(C[C@@H]2NC(=O)[C@H](C(C)C)NC(=O)[C@H](CC(C)C)N(C)C(=O)[C@H](C(C)C)NC(=O)[C@H](Cc3ccccc3)NC(=O)[C@H](C)NC(=O)[C@H](C[C@@H](C)CO)N(C)C2=O)c2ccccc21 [SI-72] (cyclo(AFV[NMeL]V[X1][NMeLeu(5-OH,4R)]))"
tgt = "Caco-2 monolayers"
observable = "CACO permeability PEBA"
output_unit = "cm/s"
experimental_result = 0.000009999999999999999

[[record]]
molecule = "C#CC[C@@H]1NC(=O)[C@H](CC(C)C)N(C)C(=O)[C@H](C(C)C)NC(=O)[C@H]([C@H](OC)c2ccccc2)NC(=O)[C@H](C)NC(=O)[C@H](C[C@@H](C)CO)N(C)C(=O)[C@H](Cc2cn(C)c3ccccc23)NC1=O [Compound 10] (cyclo(A[Phe(βR-OMe)]V[NMeL][Pra][Trp(1-Me)][NMeLeu(5-OH,4R)]))"
tgt = "Caco-2 monolayers"
observable = "CACO permeability PEBA"
output_unit = "cm/s"
experimental_result = 0.000014

[[record]]
molecule = "C=CCn1cc(C[C@@H]2NC(=O)[C@H](C(C)C)NC(=O)[C@H](CC(C)C)N(C)C(=O)[C@H](C(C)C)NC(=O)[C@H]([C@H](OC)c3ccccc3)NC(=O)[C@H](C)NC(=O)[C@H](C[C@@H](C)CO)N(C)C2=O)c2ccccc21 [Compound 13] (cyclo(A[Phe(βR-OMe)]V[NMeL]V[X7][NMeLeu(5-OH,4R)]))"
tgt = "Caco-2 monolayers"
observable = "CACO permeability PEBA"
output_unit = "cm/s"
experimental_result = 0.000018999999999999998

[[record]]
molecule = "C#CCOc1ccc([C@@H](OC)[C@@H]2NC(=O)[C@@H](C)NC(=O)[C@H](CC(C)CO)N(C)C(=O)C(Cc3cn(C)c4ccccc34)N(C)C(=O)C(C(C)C)NC(=O)[C@H](CC(C)C)N(C)C(=O)[C@@H](C(C)C)NC2=O)cc1 (some centres unmarked) [SI-64] (cyclo([NMeL][ξV][ξNMeTrp(1-Me)][X8][dA][X3][dV]))"
tgt = "Caco-2 monolayers"
observable = "CACO permeability PEBA"
output_unit = "cm/s"
experimental_result = 0.000042999999999999995

